Items are presented alongside their recorded MIC50.
Test system: Staphylococcus aureus
Assay: Antibacterial activity against Tmp-resistant Staphylococcus aureus by agar dilution method
Type: functional
readout-label: MIC50 (µg/mL)

INSERT INTO measurements (compound, unit_descriptor, value_qualifier, numeric_readout) VALUES
  ('COc1ncc(C2c3ccccc3C=NN2C(=O)/C=C/c2cc(Cc3cnc(N)nc3N)cc(OC)c2OC)cn1 (stereo not drawn)', 'µg/mL', '=', 0.25),
  ('CN[C@H](CC(C)C)C(=O)N[C@H]1C(=O)N[C@@H](CC(N)=O)C(=O)N[C@H]2C(=O)N[C@H]3C(=O)N[C@H](C(=O)N[C@H](C(=O)O)c4cc(O)cc(O)c4-c4cc3ccc4O)[C@H](O)c3ccc(c(Cl)c3)Oc3cc2cc(c3O[C@@H]2O[C@H](CO)[C@@H](O)[C@H](O)[C@H]2O[C@H]2C[C@](C)(N)[C@H](O)[C@H](C)O2)Oc2ccc(cc2Cl)[C@H]1O [VANCOMYCIN]', 'µg/mL', '=', 1),
  ('CC(=O)NC[C@H]1CN(c2ccc(N3CCOCC3)c(F)c2)C(=O)O1 [LINEZOLID]', 'µg/mL', '=', 1),
  ('COc1cc(Cc2cnc(N)nc2N)cc(/C=C/C(=O)N2N=Cc3ccccc3C2c2cnc(N(C)C)nc2)c1OC (stereo not drawn)', 'µg/mL', '=', 0.25),
  ('CN(C)c1ccc(O)c2c1C[C@H]1C[C@H]3[C@H](N(C)C)C(O)=C(C(N)=O)C(=O)[C@@]3(O)C(O)=C1C2=O [MINOCYCLINE]', 'µg/mL', '=', 0.25),
  ('COc1cc(Cc2cnc(N)nc2N)cc(/C=C/C(=O)N2N=Cc3ccccc3C2c2cnc(N3CCOCC3)nc2)c1OC (stereo not drawn)', 'µg/mL', '=', 0.25),
  ('COc1cc(Cc2cnc(N)nc2N)cc(OC)c1OC [TRIMETHOPRIM]', 'µg/mL', '>', 128),
  ('CO[C@H]1/C=C/O[C@@]2(C)Oc3c(C)c(O)c4c(O)c(c(/C=N/N5CCN(C)CC5)c(O)c4c3C2=O)NC(=O)/C(C)=C\C=C\[C@H](C)[C@H](O)[C@@H](C)[C@@H](O)[C@@H](C)[C@H](OC(C)=O)[C@@H]1C [RIFAMPIN]', 'µg/mL', '=', 0.008);

###

Recorded MIC90 by entry
System: Staphylococcus aureus
Test: Antibacterial activity against Tmp-resistant Staphylococcus aureus by agar dilution method
Format: functional
readout-label: MIC90 (µg/mL)

INSERT INTO measurements (compound, target_system, value_qualifier, numeric_readout) VALUES
  ('CC(=O)NC[C@H]1CN(c2ccc(N3CCOCC3)c(F)c2)C(=O)O1 [LINEZOLID]', 'Staphylococcus aureus', '=', 2),
  ('CO[C@H]1/C=C/O[C@@]2(C)Oc3c(C)c(O)c4c(O)c(c(/C=N/N5CCN(C)CC5)c(O)c4c3C2=O)NC(=O)/C(C)=C\C=C\[C@H](C)[C@H](O)[C@@H](C)[C@@H](O)[C@@H](C)[C@H](OC(C)=O)[C@@H]1C [RIFAMPIN]', 'Staphylococcus aureus', '>', 16),
  ('COc1cc(Cc2cnc(N)nc2N)cc(/C=C/C(=O)N2N=Cc3ccccc3C2c2cnc(N3CCOCC3)nc2)c1OC (centres undefined)', 'Staphylococcus aureus', '=', 0.5),
  ('CN(C)c1ccc(O)c2c1C[C@H]1C[C@H]3[C@H](N(C)C)C(O)=C(C(N)=O)C(=O)[C@@]3(O)C(O)=C1C2=O [MINOCYCLINE]', 'Staphylococcus aureus', '=', 8);

The values you see were collected from ChEMBL document CHEMBL1649147.
